meta.source: patent US20260097037A1

Molecular target: Human GLP-1 receptor stably expressing cells (hGLP-1R/CHO-K1 cells) (Homo sapiens)
Sequence (P43220 24-463): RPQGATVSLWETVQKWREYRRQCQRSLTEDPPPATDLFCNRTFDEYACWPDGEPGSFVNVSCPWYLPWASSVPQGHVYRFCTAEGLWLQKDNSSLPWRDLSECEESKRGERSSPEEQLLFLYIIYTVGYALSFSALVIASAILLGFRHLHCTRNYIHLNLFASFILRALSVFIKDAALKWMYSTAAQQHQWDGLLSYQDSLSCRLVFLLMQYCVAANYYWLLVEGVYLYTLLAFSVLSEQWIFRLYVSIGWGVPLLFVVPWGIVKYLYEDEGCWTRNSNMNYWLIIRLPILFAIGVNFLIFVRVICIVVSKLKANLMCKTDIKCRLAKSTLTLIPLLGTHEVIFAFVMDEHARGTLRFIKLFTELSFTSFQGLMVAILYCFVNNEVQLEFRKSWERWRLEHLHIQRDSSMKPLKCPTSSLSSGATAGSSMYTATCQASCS
Assay: Measurement of GLP-1 receptor agonist activity (cAMP assay)
Details: increase in cAMP concentration in hGLP-1R/CHO-K1 cells, 37° C. 1 hour
Please respond with reported EC50 for every item in the list.
Numbers only, in nM.

Request: Suppose we examine the compound C[C@H]1c2nc(OCc3ccc(F)cc3)c(Cl)cc2CCN1Cc1nc2ccc(C(=O)O)c(F)c2n1C[C@@H]1CCO1 ; what EC50 value has been reported?
Result: 0.208

I'm hoping you can list EC50 for every compound here, please.
1. Cc1ccc(COc2nc3c(cc2C(F)F)CCN(Cc2nc4ccc(C(=O)O)c(F)c4n2C[C@@H]2CCO2)[C@H]3C)cc1
2. C[C@H]1c2c(cc(C(F)(F)F)c3c2O[C@@](C)(c2ccc(Cl)cc2F)O3)CCN1Cc1nc2c(F)cc(C(=O)O)cc2n1C[C@@H]1CCO1
3. C[C@H]1c2nc(OCc3ccc(OC(F)F)cc3F)c(C#N)cc2CCN1Cc1nc2c(Cl)cc(C(=O)O)cc2n1C[C@@H]1CCO1
4. C[C@H]1c2cc(OCc3ccc(Cl)cn3)c(C(F)F)cc2CCN1Cc1nc2ccc(C(=O)O)cc2n1C[C@@H]1CCO1
5. C[C@H]1c2nc(OCc3ccc(Cl)cc3)c(Cl)cc2CCN1Cc1nc2c(F)cc(C(=O)O)cc2n1C[C@@H]1CCO1
6. COc1cc(C(=O)O)cc2c1nc(CN1CCc3cc(C(F)(F)F)c(NCc4ccc(Cl)cc4F)nc3[C@@H]1C)n2C[C@@H]1CCO1

Result:
0.148
1.63
0.466
3.6
0.0849
0.0391

I'm hoping you can list EC50 for every compound here, please.
1. C[C@H]1c2nc(OCc3cc(F)c(Cl)cc3F)c(C(F)F)cc2CCN1Cc1nc2c(F)cc(C(=O)O)cc2n1C[C@@H]1CCO1
2. C[C@H]1c2nc(OCc3c(F)cc(Cl)cc3F)c(C(F)F)cc2CCN1Cc1nc2ccc(C(=O)O)nc2n1C[C@@H]1CCO1
3. C[C@H]1c2nc(NCc3ccc(Cl)cn3)c(C(F)(F)F)cc2CCN1Cc1nc2c(Cl)cc(C(=O)O)cc2n1C[C@@H]1CCO1
4. C[C@H]1c2cc(OCc3ccccc3Cl)c(C(F)F)cc2CCN1Cc1nc2ccc(C(=O)O)cc2n1C[C@@H]1CCO1

Result:
1. 0.0604
2. 0.469
3. 0.345
4. 7.91

I'm hoping you can list EC50 for every compound here, please.
1. C[C@H]1c2nc(OCc3ccc(Cl)cc3F)c(C#N)cc2CCN1Cc1nc2c(F)cc(C(=O)O)cc2n1C[C@@H]1CCO1
2. C[C@H]1c2nc(OCc3ncc(Cl)cc3F)c(C(F)(F)F)cc2CCN1Cc1nc2ccc(C(=O)O)cc2n1C[C@@H]1CCO1

Result:
0.119
0.314
